# Test system: M14 melanoma
# PROTOCOL NOTES: NCI tumour cell line growth inhibition, 48 h
Listed here: items and their measured TGI.
VALUE TYPE: TGI

> print(dat)
                                    compound  data.value
 1  COC(=O)CCc1cc(O)c2c(c1)C(C(=O)OC)C(c1ccc(O)c(O)c1)O2 (stereo not given)    > 100 µM
 2  COc1ccc(-n2cc(-c3cc(OC)c(OC)c(OC)c3)[nH]c2=O)cc1Cl    > 100 µM
 3     CCc1oc2ccccc2c1C(=O)c1cc(I)c(O)c(I)c1      5.3 µM
 4                O=c1[nH]nc(Cc2ccccc2)[nH]1    > 100 µM
 5  C=C1C(=O)O[C@H]2[C@H]1CC/C(COC(=O)c1cc3ccccc3s1)=C\CC[C@@]1(C)O[C@@H]21     4.24 µM
 6    CCn1c2ccccc2n2c(=O)c3c(c(C#N)c12)CCCC3    > 100 µM
 7  COc1cccc(/C=C2\C(=O)N(C(=O)c3ccc(NC(C)=O)cc3)N=C2C)c1    > 100 µM
 8  CCOc1ccc2c(c1)[n+]([O-])c(-c1nc3ccccc3s1)c(N)[n+]2[O-]    > 100 µM
 9  COC1=CC2(C=CC1=O)c1cc(OC)c(OC)cc1CCN2C(=O)c1ccccc1 (stereo not given)    > 100 µM
10        COc1ccc(O)c(/C(C)=N/NC(=S)N(C)C)c1    > 100 µM
